Exercise: state measured mass density for each of the compounds provided.
- assay-conditions: 353.15 K; 4000 kPa; Liquid
Give your result in kg/m3 as a bare value.

Would you kindly share the measured mass density for CCCCCCCC[n+]1ccn(C)c1.F[P-](F)(F)(F)(F)F [1-octyl-3-methylimidazolium hexafluorophosphate] ?
1196.3

Entry CCCCn1cc[n+](C)c1.F[B-](F)(F)F [1-butyl-3-methylimidazolium tetrafluoroborate] : reported mass density = ?
1163.5

Quick check: mass density of CCCCn1cc[n+](C)c1C.F[P-](F)(F)(F)(F)F [1-butyl-2,3-dimethylimidazolium hexafluorophosphate] ?
1307.8

// lookup mass density for CCCCn1cc[n+](C)c1.O=S(=O)([O-])C(F)(F)F [1-butyl-3-methylimidazolium trifluoromethanesulfonate]
1256.7

Item under review: CCCCCCCC[n+]1ccn(C)c1.F[B-](F)(F)F [1-methyl-3-octylimidazolium tetrafluoroborate] . Reported mass density?
1067

Which mass density is reported for this compound? CCCCCCn1cc[n+](C)c1.F[P-](F)(F)(F)(F)F [1-hexyl-3-methylimidazolium hexafluorophosphate]
1250.5

###

Provide the recorded mass density for the entries that follow.
- assay-conditions: 393.15 K; 2000 kPa; Liquid
State the answer as a number, implicitly in kg/m3.

Data request, read-out mass density, for CCCCn1cc[n+](C)c1.F[B-](F)(F)F [1-butyl-3-methylimidazolium tetrafluoroborate]
1137.3

Would you mind telling me what mass density value was observed for CCCCCCn1cc[n+](C)c1.F[P-](F)(F)(F)(F)F [1-hexyl-3-methylimidazolium hexafluorophosphate] ?
1220.9

Name the recorded mass density for CCCCCCCC[n+]1ccn(C)c1.F[B-](F)(F)F [1-methyl-3-octylimidazolium tetrafluoroborate] .
1042.1

Can you look up the measured mass density of CCCCn1cc[n+](C)c1.O=S(=O)([O-])C(F)(F)F [1-butyl-3-methylimidazolium trifluoromethanesulfonate] for me?
1226.8

Which mass density is listed for CCCCCCCC[n+]1ccn(C)c1.F[P-](F)(F)(F)(F)F [1-octyl-3-methylimidazolium hexafluorophosphate] ?
1167.5

Any idea what mass density was measured for CCCCn1cc[n+](C)c1C.F[P-](F)(F)(F)(F)F [1-butyl-2,3-dimethylimidazolium hexafluorophosphate] ?
1277.4

###

Provide the recorded mass density for the entries that follow.
- assay-conditions: 393.15 K; 1000 kPa; Liquid
// note: answer is a bare numeric in kg/m3

Need mass density of CCCCCCn1cc[n+](C)c1.F[P-](F)(F)(F)(F)F [1-hexyl-3-methylimidazolium hexafluorophosphate] , thanks.
1220.1

# query: mass density of entry CCCCn1cc[n+](C)c1C.F[P-](F)(F)(F)(F)F [1-butyl-2,3-dimethylimidazolium hexafluorophosphate]
1276.8

Reported mass density for CCCCCCCC[n+]1ccn(C)c1.F[B-](F)(F)F [1-methyl-3-octylimidazolium tetrafluoroborate] : what is it?
1041.5

Reported mass density for CCCCn1cc[n+](C)c1.O=S(=O)([O-])C(F)(F)F [1-butyl-3-methylimidazolium trifluoromethanesulfonate] : what is it?
1226.1

I would be grateful if you could share the reported mass density for CCCCCCCC[n+]1ccn(C)c1.F[P-](F)(F)(F)(F)F [1-octyl-3-methylimidazolium hexafluorophosphate] .
1166.8

Suppose we examine the molecule CCCCn1cc[n+](C)c1.F[B-](F)(F)F [1-butyl-3-methylimidazolium tetrafluoroborate] ; what mass density value has been reported?
1136.7

Source of measurements: the NIST ThermoML archive (doi:10.1021/je060247x)
